Target: Histone deacetylase 1 (Homo sapiens)
Sequence (Q13547 whole entry): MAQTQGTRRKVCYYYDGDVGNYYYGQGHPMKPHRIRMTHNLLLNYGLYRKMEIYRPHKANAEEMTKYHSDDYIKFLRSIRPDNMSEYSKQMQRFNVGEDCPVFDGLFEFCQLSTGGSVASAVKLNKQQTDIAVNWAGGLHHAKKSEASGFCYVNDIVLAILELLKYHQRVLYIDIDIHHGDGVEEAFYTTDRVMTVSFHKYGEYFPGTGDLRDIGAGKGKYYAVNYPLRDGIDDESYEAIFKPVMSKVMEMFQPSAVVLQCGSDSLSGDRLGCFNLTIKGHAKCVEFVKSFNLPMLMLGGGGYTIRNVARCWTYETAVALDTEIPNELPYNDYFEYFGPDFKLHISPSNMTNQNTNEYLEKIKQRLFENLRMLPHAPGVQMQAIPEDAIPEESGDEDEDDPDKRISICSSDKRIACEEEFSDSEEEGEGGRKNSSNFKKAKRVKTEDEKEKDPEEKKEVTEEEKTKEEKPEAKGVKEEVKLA
Assay: Inhibition of HDAC1 (unknown origin)
REPORTED_ENDPOINT: IC50

> print(dat)
                                   compound  measurement
1  COc1ccc(CN(C(=O)CC2CCC(C(=O)Nc3ccccc3N)CC2)c2cc(OC)c(OC)c(OC)c2)cc1O (stereo unspecified)       525 nM

----------
Molecular target: Histone deacetylase 2 (Homo sapiens, UniProt Q92769)
Sequence (Q92769 whole entry): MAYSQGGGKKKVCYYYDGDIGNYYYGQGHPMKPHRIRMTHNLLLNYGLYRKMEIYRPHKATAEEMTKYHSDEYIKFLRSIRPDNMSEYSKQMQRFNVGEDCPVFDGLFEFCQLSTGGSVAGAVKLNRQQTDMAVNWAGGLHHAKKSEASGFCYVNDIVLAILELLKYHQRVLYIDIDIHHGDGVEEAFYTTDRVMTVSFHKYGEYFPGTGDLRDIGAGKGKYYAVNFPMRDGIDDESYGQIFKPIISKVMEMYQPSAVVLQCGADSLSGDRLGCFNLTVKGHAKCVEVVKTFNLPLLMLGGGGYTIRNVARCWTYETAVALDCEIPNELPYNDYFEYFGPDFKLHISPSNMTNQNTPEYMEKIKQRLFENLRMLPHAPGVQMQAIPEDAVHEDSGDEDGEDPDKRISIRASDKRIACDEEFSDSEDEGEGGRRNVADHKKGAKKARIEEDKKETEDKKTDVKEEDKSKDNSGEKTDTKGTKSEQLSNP
Assay: Inhibition of human recombinant HDAC2 extracted from baculovirus infected Insect cells using Ac-Lys-Tyr-Lys (acetyl)-AMC as substrate incubated for 24 hrs by fluorescence analysis
Design: species or system Insect cell
REPORTED_ENDPOINT: IC50 (nM)

> print(dat)
                         compound.structure                       experimental.system  reported.endpoint  measurement
1  COc1cc([C@@H]2c3cc4c(cc3C[C@H]3COC(=O)[C@@H]32)OCO4)cc(OC)c1OC(=O)CC(=O)Nc1ccc(C(=O)Nc2ccccc2N)cc1  Histone deacetylase 2 (Homo sapiens, UniProt Q92769)               IC50         1730
